system name: T1, PDZRN3_1, Q9UPQ7
T1 sequence (Q9UPQ7 244-349, limits assumed, looked up): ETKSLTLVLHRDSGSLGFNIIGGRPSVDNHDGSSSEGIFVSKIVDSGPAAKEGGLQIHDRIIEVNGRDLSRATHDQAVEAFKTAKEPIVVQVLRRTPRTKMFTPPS
experiment description: holdup assay
Parameters: key: below the threshold = too weak to quantify, mostly under pKd 3.1 to 4
assay conditions: plain residues with an end cap or a label only (N-terminal biotin on a linker: ado-ado)
attribute measured: pKd

Known results for binders:
>>> print(df.to_string())
                         binder             measured
0  ARGPPRESEV [FAM110D, Q8TAY7]                 5.07
1     STKRKLASAV [NCF1, P14598]  below the threshold
2   NNNVVKVDSV [MTNR1A, P48039]  below the threshold
3      PYPTADHMLA [JUP, P14923]  below the threshold
4   RDPPAEWTRV [PTPN18, Q99952]                 3.55

// for each binder below, give its pKd
1. NISYRRESAI [KCNJ4, P48050]
2. AEASVACSLC [PTGIR, P43119]
3. EDLEDEWEVI [TECPR2, O15040]

a:
1. 4.43
2. below the threshold
3. below the threshold
